test target: DNA polymerase eta (Homo sapiens)
experiment summary: qHTS for Inhibitors of Polymerase Eta
recorded conditions: recombinant Pol eta, fluorescent DNA replication assay; series mostly up to 114 µM
Out of some 390,000 compounds screened, about 4,700 (1.2%) were called active. About 4% were inconclusive and are not listed. The call rests on the fitted dose curve; in most records, active means well fitted inhibition curve with a large enough effect; inconclusive means small, poorly fitted or top-dose-only effect, or another doubt; inactive means no such curve, though single readings can be large or run the other way. The sample as a whole holds a higher share of actives than the screen did.
Classes used: active, inactive

# compound, cat
measured = [
    ("COC(=O)C1=C(c2c(C)noc2C)C[C@@H]2CC[C@H]1N2C(=O)NCc1ccc2c(c1)OCO2", "inactive"),
    ("CN(C)/C=C(\\C=[N+](C)C)c1[nH]ncc1[N+](=O)[O-]", "inactive"),
    ("C=CC12CN(C)[C@@H]3C4CO[C@H](C[C@H]41)[C@]1(C(=O)Nc4ccccc41)[C@@H]32 (stereo not given in full)", "inactive"),
    ("C=CCN(CC=C)C(=O)Nc1ccc(OCC)cc1", "inactive"),
    ("CC1=C(C(=O)Nc2ccccc2)SCCO1", "inactive"),
    ("CCOC(=O)c1ncn2c1[C@@H]1CCCN1C(=O)c1cc(OC)ccc1-2", "inactive"),
    ("O=C1NC(=O)N(c2ccc(F)cc2)C(=O)/C1=C/c1ccc2c(c1)CCCN2Cc1ccccc1", "active"),
    ("COc1ccc(N2C(=O)/C(=C/c3ccco3)C(=O)NC2=S)cc1", "active"),
    ("CC(=O)N1CN2CN(C(C)=O)CC(C(=O)c3ccc(Br)cc3)(C2)C1", "inactive"),
    ("CN1CCN(/N=C/c2c[nH]c3ccccc23)CC1", "inactive"),
]

###

test target: DNA polymerase eta (Homo sapiens) (UniProt Q9Y253)
Sequence (Q9Y253 whole entry, looked up): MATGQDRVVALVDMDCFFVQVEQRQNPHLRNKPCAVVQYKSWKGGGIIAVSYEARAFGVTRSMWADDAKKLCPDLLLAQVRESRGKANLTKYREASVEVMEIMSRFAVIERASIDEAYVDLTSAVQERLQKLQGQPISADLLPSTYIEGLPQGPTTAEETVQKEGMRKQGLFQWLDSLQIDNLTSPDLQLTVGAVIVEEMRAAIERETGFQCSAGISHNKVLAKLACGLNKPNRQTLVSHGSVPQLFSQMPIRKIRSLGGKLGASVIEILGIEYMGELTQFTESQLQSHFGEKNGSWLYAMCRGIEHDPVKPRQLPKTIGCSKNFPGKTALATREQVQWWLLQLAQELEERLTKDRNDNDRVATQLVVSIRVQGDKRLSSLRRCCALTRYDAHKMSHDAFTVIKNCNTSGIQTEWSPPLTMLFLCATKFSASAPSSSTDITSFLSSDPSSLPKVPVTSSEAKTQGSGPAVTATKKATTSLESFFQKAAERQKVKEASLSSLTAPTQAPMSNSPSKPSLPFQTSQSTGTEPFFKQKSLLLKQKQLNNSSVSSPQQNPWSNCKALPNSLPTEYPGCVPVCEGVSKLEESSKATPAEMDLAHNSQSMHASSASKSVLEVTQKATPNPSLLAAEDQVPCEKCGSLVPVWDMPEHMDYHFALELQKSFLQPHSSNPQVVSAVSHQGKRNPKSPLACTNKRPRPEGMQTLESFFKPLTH
experiment summary: qHTS for Inhibitors of Polymerase Eta; further: potency means the concentration at half of the fitted maximal effect
recorded conditions: recombinant Pol eta, fluorescent DNA replication assay; series mostly up to 114 µM
Text: The Y-family of DNA polymerases, such as Pol eta, are specifically involved in DNA repair. Pol eta copies undamaged DNA with a lower fidelity than other DNA-directed polymerases. However, it accurately replicates UV-damaged DNA; when thymine dimers are present, this polymerase inserts the complementary nucleotides in the newly synthesized DNA, thereby bypassing the lesion and suppressing the mutagenic effect of UV-induced DNA damage. […]
The campaign covered roughly 390,000 compounds. About 4,700 (1.2%) were called active. About 4% were inconclusive and are not listed. The sample as a whole holds a higher share of actives than the screen did.
metric: Potency

# compound, assay value
records = [
    ("CCC1(CC(C)c2ccccc2)C(=O)NC(=O)NC1=O (stereo unspecified)", "inactive"),
    ("O=C(O)C1C2CCC(O2)C1C(=O)O (stereo unspecified)", "inactive"),
    ("c1ccc2c(c1)[I+]c1ccccc1-2", "inactive"),
    ("COc1cccc(OC)c1C(=O)NC(=S)N1C[C@H]2C[C@H](C1)c1cccc(=O)n1C2", "inactive"),
    ("O=C1NC(=O)N(c2ccccc2)C(=O)/C1=C/c1ccc([N+](=O)[O-])s1", "10 µM (active)"),
    ("CCc1ccc(OCC(=O)N2CCN(CC(=O)Nc3ccccc3Cl)CC2)cc1", "inactive"),
]
